# protocol.details: folding stability dG unfold from trypsin proteolysis; higher = more stable
Label class 0 if folding stability dG unfold falls below 2 kcal/mol; label class 1 in every other case.

Below are worked cases with known answers.
>>> df
                              sequence_code  group_label
0  SAGGSAGGSAGGSADKNGYVKIPITVFTMERYGNGQPKMETVKVEIYVPPGESIEDLLQSAGGSAGGSAGGS [r4_283_TrROS]      class 0
1  SAGGSAGGSAGREEVEEAIRAGETVTLEEKSPEGVIPVITVRAEFPDPDKVLVETEVKPLSAGGSAGGSAGG [r11_710_JUSTAS]      class 0
2  SAGGSAGGSAGPVTITIKVPKEDEEEIEALARELAAALPPPEGAKVTVERNEDGTITITLSAGGSAGGSAGG [r17_324_TrROS_Hall]      class 0
3  SAGGSELENMSLEELLARAEELARELAEETGRTVTVTVEVRVRLPDGSTRTFRFTVTLTVLREEDLSAGGSA [r2_157_TrROS_Hall]      class 1
4  SAGGMELVGEYEVELPDVPIRFPVYRVPEAGLVVVEAERYDPSTGEWTPLGVVPLPEGSAEEALKALSAGGS [r8_423_TrMRF]      class 0
5  SAIKLPDGFEIKEVEFTPDGNVTIKIEVKKYSFMIYNPDNGQIQHIPPGKEQEITMPPNEPMRIWVIKPSAG [r14_385_TrROS]      class 0
6  SAGGSAGGSAGSMIEEAVEAAKASGDPDVTVDLETPEGRVTVTVTVDPATGTVTVTTSPESAGGSAGGSAGG [r17_475_JUSTAS]      class 0
7  SAGGSAGGKYQEFEYMIMFPDGGMFRVKIEYSPNPGQVKIKIEFPGGEREITIPPGAPITIMPMSAGGSAGG [r6_927_TrROS]      class 1

-- ask Given the entry SAGGEAEVVARAEVTLPDGVKVEVEVVRVDGKLVVRVRVEVRLPPPPPPPPPPLPPLSEEERKKLAEASAGG [r13_760_TrROS_Hall] , answer whether its folding stability dG unfold meets or surpasses 2 kcal/mol.
-- reply class 1

-- ask Given the entry SAGGNIKVRREPRPNGQYRVKITIPDPDGKPIEIEYRMPPGMDSPEQAQKEAIEVVKEFAKKHNIKISAGGS [r8_464_TrROS] , answer whether its folding stability dG unfold meets or surpasses 2 kcal/mol.
-- reply class 0

-- ask Given the entry SAGGSAGGSMPPEELRKKILEDPNVEVLSIEPPGPEVTLITTKYPRETETPTTETVTEKLPVPLSAGGSAGG [r6_154_JUSTAS] , answer whether its folding stability dG unfold meets or surpasses 2 kcal/mol.
-- reply class 0

-- ask Given the entry SAGGMELVIAVNSKEEAKKAAEEIKKKTPKGFKLEIEIEEYDLKENVEPEDKDIENIKVYLIKVKLESAGGS [r16_795_TrMRF] , answer whether its folding stability dG unfold meets or surpasses 2 kcal/mol.
-- reply class 0

-- ask Given the entry SAGGMEEIEPVTITITVVDEETGEKVEIKITVPKEEITRIEIKPDGTIRIYFKENNEVIEIKLEDIKSAGGS [r16_410_TrROS_Hall] , answer whether its folding stability dG unfold meets or surpasses 2 kcal/mol.
-- reply class 1
